Tested on: SK-MEL-2 melanoma
Assay: NCI-60 one-dose screen, 48 h
Details: 10 µM unless noted
This is part of a sample that, as a whole, favours compounds with a hit. Of some 83,000 tested, about 20% had one in any assay. Activity calls are given as the source filed them. How the source made its calls: active means growth percent below 10; inactive means the rest.
Result category, one only: active, inactive

The examples below pair each entry with its known result.
molecule	assigned_class
C#CC(=O)Nc1cccc(Nc2nc3c(c(NCc4ccccc4)n2)CCCC3)c1	active
COc1ccc2c(Nc3ccc(NS(C)(=O)=O)cc3)c3ccccc3nc2c1	active
COc1ccc(-c2nc(N/N=C/c3c[nH]c4ccccc34)nc(N3CCOCC3)c2C#N)cc1	inactive
c1ccc(-c2nnc(Nc3ccc4c(c3)OCCO4)o2)c(NCc2ccncc2)c1	active
COc1cc2oc(-c3cccc(C(=O)Nc4ccc(Cl)cc4)c3)cc(=O)c2c(OC)c1OC	inactive
COc1cc(C2CC(c3cccc(Nc4ccncc4)c3)=NN2c2cc(Cl)cc(Cl)c2)cc(OC)c1OC (centres undefined)	inactive

Test call, this molecule: Cc1c2c(cc[n+]1Cc1ccccc1)c1ccc(OCc3ccccc3)cc1n2Cc1ccccc1
active

Test call, this molecule: Clc1ccc2c(c1)c(-c1ccccc1)nc1nncn12
inactive

Test call, this molecule: O=C1Nc2c(ccc(Cl)c2Cl)/C1=C/c1ccc(F)cc1
active

* * *

System: MDA-MB-435 melanoma
Assay: NCI-60 one-dose screen, 48 h (100 = growth as untreated, 0 = no growth, -100 = all killed)
Settings: 10 µM unless noted
This is part of a sample that, as a whole, favours compounds with a hit. Of some 83,000 tested, about 20% had one in any assay.
Cut-off 40% on growth: below means Fulfilled, at or above means Not fulfilled.

The examples below pair each entry with its known result.
molecule	assigned_class
O=S(=O)(NCCNc1nccc(-c2c(-c3ccc(F)c(O)c3)nc3occn23)n1)c1ccccc1	Fulfilled
O=C1c2ccccc2C(=O)c2c(NCCN=Cc3ccccc3O)cccc21	Not fulfilled
CC1=CC[C@@H]2CC[C@]3(C)[C@H](CC[C@@H]4[C@@]5(C)CCCNC(C)(C)[C@@H]5CC[C@]43C)[C@H]2[C@@H]1C	Fulfilled

For the next question, use this molecule.
Item O=C1CCCCCCCCC(O)C(O)CCCC(c2cccs2)O1 (stereo not given) : growth beneath 40%, strictly?
Not fulfilled

* * *

Recorded growth values for a group of compounds are listed next.
System: K-562 leukemia
Assay: NCI-60 one-dose screen, 48 h (100 = growth as untreated, 0 = no growth, -100 = all killed)
Conditions: 10 µM unless noted
About 83,000 compounds went through this panel and 20% of them were active in at least one assay; those are over-represented in the sample as a whole.
Numeric only. Scale: %

The examples below pair each entry with its known result.
compound	growth [%]
CSc1nc(O)c(-c2ccccc2)c(=O)[nH]1	98
COc1cc2oc(-c3cccc(C(=O)Nc4ccc(Cl)cc4)c3)cc(=O)c2c(OC)c1OC	16
CCCCCCCC(=O)Nc1nc2[nH]c(CN3CCN(Cc4cccc(I)c4)CC3)c(CN3CCN(Cc4cccc(I)c4)CC3)c2c(=O)[nH]1	-43.8
NC(=O)CN1CCN(c2ccccc2Cl)CC1	97.2
C/C(=C(/c1ccccc1)c1ccc(OCC(O)CN2CCOCC2)cc1)c1ccccc1 (stereo not given)	19.7

Which growth is listed for O=C1Nc2cc(-c3ccncc3)ccc2/C1=C/c1ccc[nH]1 ?
98.3

Which growth is listed for Nc1nnc(C(=O)c2cnc3n(c2=O)CCCCC3)s1 ?
92.3

Which growth is listed for N#CC1=C(N)Oc2c(ccc3ccccc23)C1c1ccc([N+](=O)[O-])cc1 (stereo not given) ?
21.4

Which growth is listed for CCC(C)C(N)C(=O)NNc1n[nH]c(=S)n1N (stereo not given) ?
102

Which growth is listed for CCCCCN1C=C/C(=C\C(=O)N(C)c2ccc(Br)cc2)c2ccccc21 ?
76.5

Which growth is listed for O=C(CN1CCOCC1)Nc1ccc2ncnc(Nc3ccc(Oc4cccc(C(F)(F)F)c4)c(Cl)c3)c2c1 ?
35

Which growth is listed for Fc1cc(C2=NNC(c3ccc[nH]3)C2)ccc1-n1ccc(C(F)(F)F)n1 (stereo not given) ?
62.2

Which growth is listed for CS(=O)(=O)c1ccc(-c2cc3c(oc2=O)-c2ccccc2OC3O)cc1 (stereo not given) ?
81
